test: probe aShh binding to arrayed compounds – biochemical, biotinylated probe, 635/667 nm fluorescence, primary screen (AID 1114); settings: small-molecule microarray, higher = more signal;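 further: probe is biotin-labelled aShh protein from a stem cell growth factor screen; measures binding of labelled protein to compounds printed on the slide; score merges feature fluorescence at 667 nm with signal-to-noise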
Reported composite z-score values for a set of compounds
The answer should be written as a number, with no unit following it.

Consider the worked cases shown below.
CCCC[C@@H](O)C1=C(COc2ccccc2)Cn2c(=O)n(-c3ccccc3)c(=O)n2[C@H]1CO: -0.248
C=C[C@@H](O)[C@H]1CC(c2ccccc2)=NO1: 0.167
COCC(=C=CC[C@@H](O)c1ccccc1OCCO)C[C@@H](O)c1ccccn1: -0.0119

In the following, a different compound is considered.
Value of composite z-score reported for the compound COc1ccc(C(=O)Nc2ccc(CN3C(=O)[C@]4(O[C@H](CCn5cc([C@H](O)c6ccccc6)nn5)[C@@H]([Si](C)(C)c5ccc(OC)cc5)[C@@H]4C)c4ccccc43)cc2)cc1 is -0.453

Values were extracted from PubChem BioAssay.
